- assay_target: T1, JCV VP1 mutant S269F (John Cunningham virus (JCV), UniProt P03089 1-354)
- T1 construct: also called VP1 S269F; 269m VP1
- run_description: ELISA, plates coated with pseudovirus, purified antibody
result_type: EC50
Please give the number followed by its unit.

Data request: Quick check: EC50 of 1E12 (antibody, V domains shown) VH: QVQLVESGGGLVKPGGSLRLSCTASGFTFSDHYMSWIRQAPGKGLEWVSYISTGGRTIYYADSVKGRFTISRDNAKNSLYLQMNSLRAEDTAVYYCASDYYDNVGWDYWGQGTLVTVSS VL: DVVLTQSPLSLPVTLGQPASISCRSSQSLIYSDGNTYLNWFQQRPGQSPRRLIYKVSDRDSGVPDRFSGSGSGTDFTLKISRVEAEDVGVYYCMQGTHWPRTFGQGTKVEIK ?
Data returned: 8.5 ng/mL

Data request: And for 1A7 (antibody, V domains shown) VH: QVQLVQSGAEVKKPGASVKVSCKASGYTFTFYDINWVRQATGQGLEWMGWMNPNSGNTGYAQNFQGRVTMTRNTSINTAYLELSSLRSEDTAVYYCARKIWVGHTTFDRWGQGTLVTVSS VL: AIQMTQSPSSLSASVGDRVTITCRASQSISGYLNWYQQKPGKAPNLLIYAASNLQSGVPSRFSGSGSGTDFTLTISSLQREDFAPYYCQQTYNIPFTFGGGTKVEIK ?
Data returned: 7.4 ng/mL

Data request: Try the binder 1A3 (antibody, V domains shown) VH: QVQLVESGGGLVKPGGSLRLSCAASEITFSDYYMSWIRQAPGKGLEWISYISTSGRTIYFADSVKGRFTISRDNAKNSLYLQMNSLRADDTAVYYCASDFYDNSGWEYWGQGTLVTVSS VL: DVVMTQSPLSLSVTLGQPASISCRSSQSLVYSDGNTYLNWFQQRPGQSPRRLIYKVSDRDSGVPDRFSGSGSGTDFTLKISRAEAEDVGVYYCMQGTHWPRTFGQGTKVEIK
Data returned: 8 ng/mL

Measured values drawn from patent US20220356228A1 for this set.
